tested on: SHI-1; assay: cell viability (% survival relative to DMSO control, bortezomib = 0%); higher = less cytotoxic; details: 10000 nM; 72 h
measurement.type: cell viability (%)
Report only the number, with the unit % understood.

Answered examples (3):
{"molecule": "CCN(CC)CCCC(C)Nc1ccnc2cc(Cl)ccc12 (centres undefined) [Chloroquine]", "target.entity": "SHI-1", "cell viability / %": 92}
{"molecule": "COc1ccc2c(C(=S)N(C)CC(=O)O)cccc2c1C(F)(F)F [Tolrestat]", "target.entity": "SHI-1", "cell viability / %": 101}
{"molecule": "Cl.NC(CCC(=O)Nc1ccc([N+](=O)[O-])cc1)C(=O)O (centres undefined) [GPNA]", "target.entity": "SHI-1", "cell viability / %": 98.3}

### Prompt Output measured cell viability for this item: NS(=O)(=O)c1ccc([N+](=O)[O-])cc1 [4-Nitrobenzenesulfonamide]
### Response 93.8

### Prompt Output measured cell viability for this item: Cc1ccccc1C(C(=O)NC1CCCCC1)N(C(=O)Cn1ccnc1C)c1cccc(F)c1 (centres undefined) [AGI-5198]
### Response 99.1

### Prompt Output measured cell viability for this item: O=c1oc2c(O)c(O)cc3c(=O)oc4c(O)c(O)cc1c4c23 [Benzoaric Acid]
### Response 120

### Prompt Output measured cell viability for this item: CC[C@H](C)C(=O)O[C@H]1C[C@@H](C)C=C2C=C[C@H](C)[C@H](CC[C@@H]3C[C@@H](O)CC(=O)O3)[C@H]21 [Lovastatin]
### Response 92.5

---

system: NOMO-1; test: cell viability (% survival relative to DMSO control, bortezomib = 0%); higher = less cytotoxic; conditions: 10 nM; 72 h
measurement.type: cell viability (%)
Report only the number, with the unit % understood.

{"compound": "COc1ccc2c(C(=S)N(C)CC(=O)O)cccc2c1C(F)(F)F", "cell viability / %": 107}

### Prompt State recorded cell viability with NOMO-1, entry NS(=O)(=O)c1ccc([N+](=O)[O-])cc1 [4-Nitrobenzenesulfonamide] , no comment.
### Response 105

### Prompt State recorded cell viability with NOMO-1, entry CC(C)(C#N)c1cc(Cn2cncn2)cc(C(C)(C)C#N)c1 , no comment.
### Response 103

### Prompt State recorded cell viability with NOMO-1, entry COC(=O)[C@]12CCC(C)(C)C[C@H]1[C@H]1C(=O)C=C3[C@@]4(C)C=C(C#N)C(=O)C(C)(C)[C@@H]4CC[C@@]3(C)[C@]1(C)CC2 , no comment.
### Response 99.3

### Prompt State recorded cell viability with NOMO-1, entry Oc1ccc(Nc2nc(-c3ccc(Cl)cc3)cs2)cc1 , no comment.
### Response 104

### Prompt State recorded cell viability with NOMO-1, entry CN(C)c1cc(NC(=O)CNC(C)(C)C)c(O)c2c1C[C@H]1C[C@H]3[C@H](N(C)C)C(=O)C(C(N)=O)C(=O)[C@@]3(O)C(=O)C1C2=O (some centres undefined) , no comment.
### Response 97.7

### Prompt State recorded cell viability with NOMO-1, entry CCC(=O)N1CCN(c2ccc(-n3c(=O)ccc4cnc5ccc(-c6cnc7ccccc7c6)cc5c43)cc2C(F)(F)F)CC1 , no comment.
### Response 96.2

---

Recorded measurements of cell viability, one per entry
test system: SHI-1; assay: cell viability (% survival relative to DMSO control, bortezomib = 0%); higher = less cytotoxic; settings: 1 nM; 72 h
Report only the number, with the unit % understood.

{"compound": "CCCCC/C=C\\C/C=C\\C/C=C\\C/C=C\\CCCCN1C(=O)C=CC1=O [N-Arachidonylmaleimide]", "target.entity": "SHI-1", "cell viability, %": 100}
{"compound": "CCC(=O)N1CCN(c2ccc(-n3c(=O)ccc4cnc5ccc(-c6cnc7ccccc7c6)cc5c43)cc2C(F)(F)F)CC1", "target.entity": "SHI-1", "cell viability, %": 89.8}

### Prompt Output measured cell viability for this item: CCOP(=O)(OCC)C(=Cc1cc(C(C)(C)C)c(O)c(C(C)(C)C)c1)P(=O)(OCC)OCC
### Response 100

### Prompt Output measured cell viability for this item: O=C(NCCCCCCNC(=O)ONC1=CCCCC1)ONC1=CCCCC1
### Response 98.7

### Prompt Output measured cell viability for this item: C=C(C=NNC(=N)N)NNC(=N)N
### Response 93.8

### Prompt Output measured cell viability for this item: O=c1oc2c(O)c(O)cc3c(=O)oc4c(O)c(O)cc1c4c23
### Response 97.7
